Each entry below carries its reported inhibition.
# System Tested: Pantothenate synthetase (Mycobacterium tuberculosis (strain ATCC 25618 / H37Rv)) (UniProt P9WIL5)
# Sequence (P9WIL5 whole entry, looked up): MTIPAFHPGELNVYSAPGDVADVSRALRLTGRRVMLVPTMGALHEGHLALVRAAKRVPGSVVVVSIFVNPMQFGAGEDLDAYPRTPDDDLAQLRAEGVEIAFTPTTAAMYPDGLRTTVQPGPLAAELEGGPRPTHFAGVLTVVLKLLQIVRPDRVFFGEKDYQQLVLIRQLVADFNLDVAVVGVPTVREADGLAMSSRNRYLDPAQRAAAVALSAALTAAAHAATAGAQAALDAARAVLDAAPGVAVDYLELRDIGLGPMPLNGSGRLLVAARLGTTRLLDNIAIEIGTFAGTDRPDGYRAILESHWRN
# Assay Explanation: Coupled enzyme confirmation of inhibitors against recombinant Mtb PanC (AID 375);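 also: 0% = full reaction with vehicle and 100% = no enzyme background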
# Condition Context: coupled enzyme assay; at 10 µM, stronger effect = higher value
Where a SMILES comes first, the peptide text is derived from it. [ ]: non-standard residue; d: D form. The star is where a group is joined. ξ: configuration not given here. Piv = CC(C)(C)C(=O)*; ξNva = CCCC(N)C(=O)O
Recorded Metric: inhibition (%)

- Compound: "COCc1nnc(NC(=O)c2ccc(NC(C)=O)cc2)s1"
  Recorded Metric: "inhibition"
  Value Observed: 2
- Compound: "CCN(CC)S(=O)(=O)c1cccc(-c2nnc(SCCOc3ccccc3C)o2)c1"
  Recorded Metric: "inhibition"
  Value Observed: 1
- Compound: "Cn1c(=O)cc(OCC(=O)NCCCN2CCN(c3cccc(Cl)c3)CC2)c2ccccc21"
  Recorded Metric: "inhibition"
  Value Observed: 0
- Compound: "COc1cccc2cc(C(=O)N3CCN(c4ccc(C)cc4C)CC3)c(=O)oc12"
  Recorded Metric: "inhibition"
  Value Observed: 0
- Compound: "O=C1CN=C(Nc2cccc(C(F)(F)F)c2)N1C1CCCC1"
  Recorded Metric: "inhibition"
  Value Observed: 0
- Compound: "O=S(=O)(NCC(c1cccnc1)N1CCN(c2ccccc2)CC1)c1cc(F)ccc1F (stereo not drawn)"
  Recorded Metric: "inhibition"
  Value Observed: 0
- Compound: "CCCC(NC(=O)CNC(=O)C(C)(C)C)C(=O)O (stereo not drawn) (Piv-Gly-[ξNva]-OH)"
  Recorded Metric: "inhibition"
  Value Observed: 0
- Compound: "CCCNC(=O)c1c(N)n(-c2cc(OC)cc(OC)c2)c2nc3ccccc3nc12"
  Recorded Metric: "inhibition"
  Value Observed: 8
- Compound: "Cc1cc(Cn2ccnc2)c(C)cc1Cn1ccnc1"
  Recorded Metric: "inhibition"
  Value Observed: 1
- Compound: "CCOC(=O)c1ccc(NC(=O)NC(C)C2CCCO2)cc1 (stereo not drawn)"
  Recorded Metric: "inhibition"
  Value Observed: 0
- Compound: "CCn1c(SCC(=O)c2ccc(F)cc2)nnc1-c1ccoc1C"
  Recorded Metric: "inhibition"
  Value Observed: 4
- Compound: "CCN(CCCNC(=O)c1cn(CC)c2ccc(S(=O)(=O)N(C)C)cc2c1=O)c1cccc(C)c1"
  Recorded Metric: "inhibition"
  Value Observed: 7
- Compound: "COc1ccc(-c2noc(C3CCCN(C(=O)CCc4ccccc4)C3)n2)cc1 (stereo not drawn)"
  Recorded Metric: "inhibition"
  Value Observed: 0
- Compound: "CCOC(=O)Cc1nn2c(=O)cc(C)nc2s1"
  Recorded Metric: "inhibition"
  Value Observed: 0
- Compound: "CS(=O)(=O)Nc1ccc(S(=O)(=O)Nc2nccs2)cc1"
  Recorded Metric: "inhibition"
  Value Observed: 0
- Compound: "Cc1nc(SCC(=O)CC(=O)OC(C)C)c(C#N)c(C)c1C"
  Recorded Metric: "inhibition"
  Value Observed: 0
- Compound: "CCOC(=O)C1CSC(CC(=O)Nc2ccc(Cl)cc2)C(=O)N1 (stereo not drawn)"
  Recorded Metric: "inhibition"
  Value Observed: 0
- Compound: "Cc1ccc(-c2cc(C(F)F)nc(NCc3cccnc3)n2)cc1"
  Recorded Metric: "inhibition"
  Value Observed: 0
- Compound: "CCOc1ccc2cc(C#N)c(SCC(=O)N3CCC(C)CC3)nc2c1"
  Recorded Metric: "inhibition"
  Value Observed: 10
- Compound: "Cc1cc(=O)c2n(Cc3ccccc3Cl)nc[n+]2[nH]1"
  Recorded Metric: "inhibition"
  Value Observed: 5
- Compound: "O=C(CSc1nnc(CNC(=O)c2c(F)cccc2Cl)o1)c1ccccc1"
  Recorded Metric: "inhibition"
  Value Observed: 0
- Compound: "CC(C)c1nc(NCC2CCCO2)c(C#N)c2c1COC(C)(C)C2 (stereo not drawn)"
  Recorded Metric: "inhibition"
  Value Observed: 3
- Compound: "C/C(CC(O)(/C=N/O)c1ccccc1)=N\\O (stereo not drawn)"
  Recorded Metric: "inhibition"
  Value Observed: 1
